Answer each item with its documented Luminescence Raw2.
Tested on: l(2)mbn cells
Experiment: cytotoxicity in Drosophila l(2)mbn cells
Format: cell-based
Details: 0.2 µM, replicate 2

> print(dat)
                                   compound         observable  reading
1  C=C1CCC2C(C)(CC(=O)C=C(C)C)C(O)CCC2(C)C1Cc1c(OC)oc(C)c(C)c1=O (stereo not drawn) [Compound 25]  Luminescence Raw2  3450197
2  C=C1CCC2C(C)(CCC=C(C)C)C(O)CCC2(C)C1Cc1c(OC)oc(CO)c(C)c1=O (stereo not drawn) [Compound 12]  Luminescence Raw2  3578369

Quick batch: Luminescence Raw2 for everything below.
1. C=C1CCC2C(C)(CCC=C(C)C)C(O)CCC2(C)C1Cc1c(OC)oc(C)c(C)c1=O (stereo not drawn) [Compound 15, viridoxin A hydrolysate]
2. C=C1CCC2C(C)(CC(=O)C=C(C)C)C(O)CCC2(C)C1Cc1c(O)c(C)c(C)oc1=O (stereo not drawn) [Compound 7]

Output:
1. 5568336
2. 3461380

Provide the reported Luminescence Raw2 of each entry below, same order.
1. C=C1CCC2C(C)(CCC=C(C)C)C(O)CCC2(C)C1Cc1c(OC)oc(C)c(C)c1=O (stereo not drawn) [Compound 11]
2. C=C1CCC2C3(C)CC(C=C(C)C)OC3CCC2(C)C1Cc1c(OC)oc(C)c(C)c1=O (stereo not drawn) [Compound 23]

Output:
4449089
3607479

---

Provide the reported Th-T fluorescence of Aβ42 with compound, mean of three wells (Fig. 7a source data) of each item.
Target: Aβ42 (Homo sapiens)
Assay: Th-T (thioflavin-T) assay of Aβ42 aggregation
Assay type: biochemical
Conditions: concentration 50, unit not given; time-course reading M131
Numbers only.

> print(dat)
                                   compound  reading
1  C=C1CCC2C(C)(CCC=C(C)C)C(O)CCC2(C)C1Cc1c(OC)oc(CO)c(C(=O)OC)c1=O (centres unmarked) [Compound 13]    0.479
2  C=C1CCC2C(C)(CCC=C(C)C)C(O)CCC2(C)C1Cc1c(OC)oc(C)c(C(=O)OC)c1=O (centres unmarked) [Compound 14]   0.8505
3  C=C1CC[C@@H]2[C@](C)(CC[C@H]3O[C@H](C=C(C)C)C[C@@]23C)[C@@H]1Cc1c(OC)oc(CO)c(C)c1=O [Compound 20]    2.114

State recorded Th-T fluorescence of Aβ42 with compound, mean of three wells (Fig. 7a source data) for all listed compounds.
1. C=C1CCC2C(C)(CCC=C(C)C)C(O)CCC2(C)C1Cc1c(OC)oc(CO)c(C)c1=O (centres unmarked) [Compound 12]
2. C=C1CC[C@@H]2[C@](C)(CC[C@H]3O[C@H](C=C(C)C)C[C@@]23C)[C@@H]1Cc1c(OC)oc(CO)c(C(=O)OC)c1=O [Compound 21]

Output:
1. 1.579
2. 0.4987

---

Target: UniProt P05067
Assay: Th-T (thioflavin-T) assay of Aβ42 aggregation
Format: biochemical
Conditions: compound at 10; reading M47 of time course
OBSERVABLE: Th-T fluorescence, mean of three wells

Illustrative cases are given below, each with its answer.
> print(dat)
                                   compound  reading
1  C=C1CCC2C(C)(CCC=C(C)C)C(O)CCC2(C)C1Cc1c(OC)oc(CO)c(C)c1=O (centres unmarked)     3.37
2  C=C1CC[C@@H]2[C@](C)(CC[C@H]3O[C@H](C=C(C)C)C[C@@]23C)[C@@H]1Cc1c(OC)oc(CO)c(C(=O)OC)c1=O   0.2626
3  C=C1CCC2C(C)(CCC=C(C)C)C(O)CCC2(C)C1Cc1c(OC)oc(CO)c(C(=O)OC)c1=O (centres unmarked)     1.47
4  C=C1CC[C@@H]2[C@](C)(CC[C@H]3O[C@H](C=C(C)C)C[C@@]23C)[C@@H]1Cc1c(OC)oc(CO)c(C)c1=O    3.473

Lab note: next compound to report on.
Task: Th-T fluorescence, mean of three wells for C=C1CCC2C(C)(CCC=C(C)C)C(O)CCC2(C)C1Cc1c(OC)oc(C)c(C(=O)OC)c1=O (centres unmarked) ?
Output: 2.535

---

Biological target: Aβ42 (Homo sapiens, UniProt P05067)
Sequence (P05067 672-713): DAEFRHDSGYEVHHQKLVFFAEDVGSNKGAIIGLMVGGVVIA
Assay: Th-T (thioflavin-T) assay of Aβ42 aggregation
Type: biochemical
Conditions: reading M28; Supplementary Fig. 47 source data
OBSERVABLE: Th-T fluorescence, mean of three wells
Answers are plain numbers.

> print(dat)
                                   compound                                  tgt  reading
1  C=C1CCC2C(C)(CC(=O)C=C(C)C)C(O)CCC2(C)C1Cc1c(O)c(C)c(C)oc1=O (stereo not drawn)  Aβ42 (Homo sapiens, UniProt P05067)    3.364
2  C=C1CC[C@H]2[C@]3(C)C[C@H](C=C(C)C)O[C@H]3CC[C@]2(C)[C@@H]1Cc1c(OC)oc(CO)c(C)c1=O  Aβ42 (Homo sapiens, UniProt P05067)    3.673
3  C=C1CC[C@H]2[C@]3(C)C[C@H](C=C(C)C)O[C@H]3CC[C@]2(C)[C@@H]1Cc1c(O)c(C)c(C)oc1=O  Aβ42 (Homo sapiens, UniProt P05067)    2.834
4  C=C1CCC2C3(C)CC(C=C(C)C)OC3CCC2(C)C1Cc1c(OC)oc(C)c(C)c1=O (stereo not drawn)  Aβ42 (Homo sapiens, UniProt P05067)   3.7304
5  CC(C)=CCC/C(C)=C/CC/C(C)=C/CC/C(C)=C/Cc1c(O)c(C)c(C)oc1=O  Aβ42 (Homo sapiens, UniProt P05067)    2.667

Task: What does the record list as Th-T fluorescence, mean of three wells for C=C1CCC2C(C)(CCC=C(C)C)C(=O)CCC2(C)C1Cc1c(O)c(C)c(C)oc1=O (stereo not drawn) ?
Output: 2.0134

---

Target: Aβ42 (Homo sapiens, UniProt P05067)
Test: Th-T (thioflavin-T) assay of Aβ42 aggregation
Type: biochemical
Settings: concentration 20, unit not given; time-course reading M133
OBSERVABLE: Th-T fluorescence of Aβ42 with compound, mean of three wells (Fig. 7a source data)
Give bare numbers.

Below, each entry is followed by its recorded Th-T fluorescence of Aβ42 with compound, mean of three wells (Fig. 7a source data) result.
> print(dat)
                                   compound  reading
1  C=C1CC[C@@H]2[C@](C)(CC[C@H]3O[C@H](C=C(C)C)C[C@@]23C)[C@@H]1Cc1c(OC)oc(CO)c(C(=O)OC)c1=O [Compound 21]   0.9579
2  C=C1CC[C@@H]2[C@](C)(CC[C@H]3O[C@H](C=C(C)C)C[C@@]23C)[C@@H]1Cc1c(OC)oc(CO)c(C)c1=O [Compound 20]    3.072
3  C=C1CCC2C(C)(CCC=C(C)C)C(O)CCC2(C)C1Cc1c(OC)oc(CO)c(C(=O)OC)c1=O (centres unmarked) [Compound 13]    1.026

Field: Th-T fluorescence of Aβ42 with compound, mean of three wells (Fig. 7a source data). Fill in for each record below.
1. C=C1CCC2C(C)(CCC=C(C)C)C(O)CCC2(C)C1Cc1c(OC)oc(C)c(C(=O)OC)c1=O (centres unmarked) [Compound 14]
2. C=C1CCC2C(C)(CCC=C(C)C)C(O)CCC2(C)C1Cc1c(OC)oc(CO)c(C)c1=O (centres unmarked) [Compound 12]

Output:
1. 1.602
2. 2.24

---

Molecular target: Aβ42 (Homo sapiens, UniProt P05067)
Assay: Th-T (thioflavin-T) assay of Aβ42 aggregation
Assay type: biochemical
Details: time course, reading M62
So I've got a bunch of compounds here, and I need their Th-T fluorescence, mean of three wells values.
Numbers only.

> print(dat)
                                   compound                                  tgt  reading
1  CC(C)=CCC/C(C)=C/CC/C(C)=C/CC/C(C)=C/Cc1c(O)c(C)c(C)oc1=O  Aβ42 (Homo sapiens, UniProt P05067)    2.927
2  C=C1CC[C@@H]2[C@](C)(CC[C@H]3O[C@H](C=C(C)C)C[C@@]23C)[C@@H]1Cc1c(O)c(C)c(C)oc1=O  Aβ42 (Homo sapiens, UniProt P05067)    3.124
3  C=C1CCC2C(C)(CC(=O)C=C(C)C)C(O)CCC2(C)C1Cc1c(O)c(C)c(C)oc1=O (stereo not drawn)  Aβ42 (Homo sapiens, UniProt P05067)     3.61
4  C=C1CCC2C3(C)CC(C=C(C)C)OC3CCC2(C)C1Cc1c(OC)oc(C)c(C)c1=O (stereo not drawn)  Aβ42 (Homo sapiens, UniProt P05067)    4.022
5  C=C1CC[C@H]2[C@]3(C)C[C@@H](C=C(C)C)O[C@H]3CC[C@]2(C)[C@@H]1Cc1c(OC)oc(CO)c(C)c1=O  Aβ42 (Homo sapiens, UniProt P05067)    3.653

Answer for every listed entry: what is its Th-T fluorescence, mean of three wells? The entries follow.
1. C=C1CC[C@H]2[C@]3(C)C[C@@H](C=C(C)C)O[C@H]3CC[C@]2(C)[C@@H]1Cc1c(O)c(C)c(C)oc1=O
2. C=C1CCC2C(C)(CCC=C(C)C)C(=O)CCC2(C)C1Cc1c(O)c(C)c(C)oc1=O (stereo not drawn)
3. C=C1CC[C@H]2[C@]3(C)C[C@H](C=C(C)C)O[C@H]3CC[C@]2(C)[C@@H]1Cc1c(OC)oc(C)c(C)c1=O
4. C=C1CCC2C(C)(CC(=O)C=C(C)C)C(O)CCC2(C)C1Cc1c(OC)oc(CO)c(C)c1=O (stereo not drawn)
5. C=C1CCC2C(C)(CC(=O)C=C(C)C)C(O)CCC2(C)C1Cc1c(OC)oc(C)c(C)c1=O (stereo not drawn)
6. C=C1CC[C@H]2[C@]3(C)C[C@H](C=C(C)C)O[C@H]3CC[C@]2(C)[C@@H]1Cc1c(OC)oc(CO)c(C)c1=O
7. C=C1CC[C@H]2[C@]3(C)C[C@H](C=C(C)C)O[C@H]3CC[C@]2(C)[C@@H]1Cc1c(O)c(C)c(C)oc1=O

Output:
2.708
2.227
4.092
3.642
3.783
3.97
3.132
